Listed here: items and their measured pIC50.
Molecular target: CRTH2 (Homo sapiens, UniProt Q9Y5Y4)
Construct: polymorphonuclear cells (0.5 ml; 10^6/ml cells) in PBS containing 0.9 mM CaCl2 and 0.5 mM MgCl2; endogenous in cells; host or cells: polymorphonuclear cells (eosinophils gated by flow cytometry)
Sequence (Q9Y5Y4 whole entry): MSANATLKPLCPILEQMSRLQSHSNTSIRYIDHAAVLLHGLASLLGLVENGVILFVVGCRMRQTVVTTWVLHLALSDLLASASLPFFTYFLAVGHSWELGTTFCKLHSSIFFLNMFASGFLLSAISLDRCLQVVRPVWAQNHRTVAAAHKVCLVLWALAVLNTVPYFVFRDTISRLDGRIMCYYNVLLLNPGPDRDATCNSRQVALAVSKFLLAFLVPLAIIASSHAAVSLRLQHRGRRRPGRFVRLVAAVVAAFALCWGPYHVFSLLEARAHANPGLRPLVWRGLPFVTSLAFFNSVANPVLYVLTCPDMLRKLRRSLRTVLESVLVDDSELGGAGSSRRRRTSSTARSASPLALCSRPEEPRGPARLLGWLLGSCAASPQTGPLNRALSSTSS
Test: Human Whole Blood CD11b Antagonist Assay
Assay type: cell-based
Settings: eosinophil CD11b expression, challenge with 15R-Methyl-PGD2 (10 nM)
pIC50: −log10 of the molar value.

Answered cases to consult:
{"Compound": "CCOC(=O)Cn1c(C)c(Cc2ccccc2S(=O)(=O)c2ccccc2)c2c1CC(C)(C)CC2=O", "Property": "pIC50", "Experimental result": "6.30 to 7.00"}
{"Compound": "Cc1c(Cc2ccc(S(=O)(=O)NC(C)C(C)(C)C)cc2)c2c(n1CC(=O)O)CCCC2 (stereo not shown)", "Property": "pIC50", "Experimental result": "7.00 to 8.30"}
{"Compound": "Cc1c(Cc2ccccc2S(=O)(=O)N2CCOCC2)c2c(n1CC(=O)O)CCCCC2", "Property": "pIC50", "Experimental result": "6.30 to 7.00"}
{"Compound": "Cc1c(Cc2ccc(S(=O)(=O)NC3CCCCC3)cc2)c2c(n1CC(=O)O)CCCC2", "Property": "pIC50", "Experimental result": "6.30 to 7.00"}
{"Compound": "Cc1c(Cc2ccccc2S(=O)(=O)c2ccccc2)c2c(n1CC(=O)O)CCCC2", "Property": "pIC50", "Experimental result": "7.00 to 8.30"}
{"Compound": "Cc1c(Cc2ccc(S(=O)(=O)N3CCCC3)cc2)c2c(n1CC(=O)O)CCCCC2", "Property": "pIC50", "Experimental result": "7.00 to 8.30"}
{"Compound": "Cc1c(Cc2ccc(S(=O)(=O)NC3CC3)cc2)c2c(n1CC(=O)O)CCCC2", "Property": "pIC50", "Experimental result": "7.00 to 8.30"}
{"Compound": "Cc1c(Cc2ccc(S(=O)(=O)NC(C)C)cc2)c2c(n1CC(=O)O)CCCC2", "Property": "pIC50", "Experimental result": "6.30 to 7.00"}
{"Compound": "Cc1c(Cc2ccc(S(=O)(=O)N3CCOCC3)cc2)c2c(n1CC(=O)O)CC(C)(C)CC2=O", "Property": "pIC50", "Experimental result": "< 6.30"}
{"Compound": "Cc1c(Cc2ccc(S(=O)(=O)N3CCOCC3)cc2)c2c(n1CC(=O)O)CCC(C)(C)C2", "Property": "pIC50", "Experimental result": "6.30 to 7.00"}

Given CCOC(=O)N1CCN(S(=O)(=O)c2ccc(Cc3c4c(n(CC(=O)O)c3C)CCCC4)cc2)CC1 , state its recorded pIC50.
7.00 to 8.30

Now consider Cc1c(Cc2ccccc2S(=O)(=O)N2CCOCC2)c2c(n1[C@@H](C)C(=O)O)CCC(C)(C)C2 and answer again.
< 6.30

----------
Molecular target: CRTH2 (Homo sapiens, UniProt Q9Y5Y4)
Construct: polymorphonuclear cells (0.5 ml; 10^6/ml cells) in PBS containing 0.9 mM CaCl2 and 0.5 mM MgCl2; endogenous in cells; host or cells: polymorphonuclear cells (eosinophils gated by flow cytometry)
Test: Human Whole Blood CD11b Antagonist Assay
Assay type: cell-based
Conditions: eosinophil CD11b expression, challenge with 15R-Methyl-PGD2 (10 nM)
pIC50: −log10 of the molar value.
Entries annotated with measured pIC50

// below: answered molecules
{"Entry smiles": "Cc1c(Cc2ccccc2S(=O)(=O)N2CCCC2)c2c(n1CC(=O)O)CCC(C)(C)C2", "Property": "pIC50", "Experimental result": "7.00 to 8.30"}
{"Entry smiles": "Cc1c(Cc2ccc(S(=O)(=O)N3CCCC3)cc2)c2c(n1CC(=O)O)CC(C)(C)CC2=O", "Property": "pIC50", "Experimental result": "< 6.30"}
{"Entry smiles": "Cc1c(Sc2ccc(S(=O)(=O)N3CCOCC3)cc2)c2c(n1CC(=O)O)CC(C)(C)CC2=O", "Property": "pIC50", "Experimental result": "< 6.30"}

API: the following record is the query input.
May I ask what pIC50 has been recorded for Cc1c(Cc2ccc(S(=O)(=O)N3CCCCC3)cc2)c2c(n1CC(=O)O)CCC(C)(C)C2 ?
6.30 to 7.00
